# Test system: common ragweed (Ambrosia artemisizfolia L., AMBEL)
# Experiment Description: Pre-emerge test, greenhouse herbicide activity screening
# Assay type: in vivo
# Experimental Context: 250 g ai/ha; rating scale 0-100, 14 days after application
Measured Parameter: Pre-emerge herbicidal activity, phytotoxicity rating AMBEL

>>> reading("CCCOC(=O)C(Cl)Cc1c(OC)c(Cl)cc(F)c1-n1c(=O)cc(C(F)(F)F)n(C)c1=O (single isomer, unassigned)")
50
>>> reading("C=CCOC(=O)C(C)(Cl)Cc1c(OC)c(Cl)cc(F)c1-n1c(=O)cc(C(F)(F)F)n(C)c1=O (stereo not shown)")
100
>>> reading("CCCCOC(=O)C(C)(Cl)Cc1c(OC)c(Cl)cc(F)c1-n1c(=O)cc(C(F)(F)F)n(C)c1=O (stereo not shown)")
80
>>> reading("COC(=O)C(Cl)Cc1c(OC)c(Cl)cc(F)c1-n1c(=O)cc(C(F)(F)F)n(C)c1=O (stereo not shown)")
65

* * *

# Test system: large crabgrass (Digitaria sanguinalis, DIGSA)
# Experiment Description: Post-emerge test, greenhouse herbicide activity screening
# Assay type: in vivo
# Experimental Context: 250 g ai/ha; post-emerge; 14 days after application; rating scale 0-100
List of Post-emerge Herbicidal Activity DIGSA (phytotoxicity rating) values.
Measured Parameter: Post-emerge Herbicidal Activity DIGSA (phytotoxicity rating)

>>> reading("C#CCOC(=O)C(C)(Cl)Cc1c(OC)c(Cl)cc(F)c1-n1c(=O)cc(C(F)(F)F)n(C)c1=O (centres unmarked)")
99
>>> reading("CCOC(=O)C(Cl)Cc1c(OCC)c(Cl)cc(F)c1-n1c(=O)cc(C(F)(F)F)n(C)c1=O (centres unmarked)")
90
>>> reading("CCCOC(=O)C(Cl)Cc1c(OCC)c(Cl)cc(F)c1-n1c(=O)cc(C(F)(F)F)n(C)c1=O (centres unmarked)")
100
>>> reading("COc1c(Cl)cc(F)c(-n2c(=O)cc(C(F)(F)F)n(C)c2=O)c1Sc1ccc2ccccc2c1")
0
>>> reading("COc1c(Cl)cc(F)c(-n2c(=O)cc(C(F)(F)F)n(C)c2=O)c1NNC(=O)C1CC1")
80

* * *

# System: upland rice (Oryza sp., var. Tebonnet, RICE)
# Experiment Description: Post-emerge test, crop safety
# Assay type: in vivo
# Experimental Context: post-emerge, 250 g ai/ha, crop damage rating 0-100 at 14 days after application
List of Post-emerge Herbicidal Activity RICE values.
Measured Parameter: Post-emerge Herbicidal Activity RICE

>>> reading("COc1cccc(OC)c1OC(=O)Nc1c(C)c(Cl)cc(F)c1-n1c(=O)cc(C(F)(F)F)n(C)c1=O [4-59]")
60
>>> reading("Nc1c(O)c(Cl)cc(F)c1N1C(=O)C2CCCCN2C1=S (single isomer, unassigned) [12-2]")
80
>>> reading("Cc1nn(-c2c(F)cc(Cl)cc2NC(=O)c2ccc(F)cc2F)c(=O)n1C(F)F [Compound 6-23]")
15
>>> reading("COc1c(Cl)cc(F)c(-n2nc(C)n(C(F)F)c2=O)c1NC(=O)c1ccc(F)cc1F [Compound 6-14]")
90
>>> reading("COc1c(Cl)cc(F)c(-n2nnn(CCCF)c2=O)c1NC(=O)c1ccc2ccccc2c1 [Compound 5-26]")
60
>>> reading("Cc1c(Cl)cc(F)c(-n2c(=O)cc(C(F)(F)F)n(C)c2=O)c1NC(=O)OCc1ccc(Cl)cc1 [4-61]")
80
>>> reading("O=C(Nc1cc(Cl)ccc1-n1c(=O)n2n(c1=S)CCCC2)c1ccc2ccccc2c1 [9-14]")
40
>>> reading("COc1c(Cl)cc(F)c(-n2ncc(C(F)(F)F)c(C)c2=O)c1NC(=O)c1ccc2ccccc2c1 [11-13]")
65

* * *

# System: large crabgrass (Digitaria sanguinalis, DIGSA)
# Experiment Description: Pre-emerge test, greenhouse herbicide activity screening
# Format: in vivo
# Experimental Context: Digitaria sanguinalis, pre-emergence, 336 h; pre-emerge, rate 63 g ai/ha, phytotoxicity rating 0-100 at 14 days after application; read-out: Pre-emerge Herbicidal Activity DIGSA
List of pest or weed control at 63 g/ha values.
Measured Parameter: pest or weed control at 63 g/ha (%)

>>> reading("Cc1nn(-c2c(Cl)cc(Cl)cc2NC(=O)c2ccc3ccccc3c2)c(=O)n1C(F)F [Compound 6-16]")
30
>>> reading("COc1c(Cl)cc(F)c(-c2nn(C)c(C(F)(F)F)c2Cl)c1NC(=O)C=Cc1ccccc1 [Compound 7-15]")
0
>>> reading("Cc1nn(-c2c(Cl)cc(Cl)c(N)c2N)c(=O)n1C(F)F [Compound 6-20]")
0
>>> reading("Nc1c(O)c(Cl)cc(F)c1N1C(=O)C2=C(CCCC2)C1=O [Compound 8-2]")
0
>>> reading("COc1c(Cl)cc(F)c(-c2nn(C)c(C(F)(F)F)c2Cl)c1NC(=O)c1ccc2ccccc2c1 [Compound 7-14]")
60

* * *

List of CORN phytotoxicity rating (crop damage) values.
# Test system: field corn (Zea mays L., var. Dekalb 535, CORN)
# Experiment Description: Post-emerge test, crop safety
# Assay type: in vivo
# Experimental Context: post-emerge, 63 g ai/ha, 14 days after application, rating scale 0-100
Measured Parameter: CORN phytotoxicity rating (crop damage)

>>> reading("COc1c(Cl)cc(F)c(-n2c(=O)cc(C(F)(F)F)n(C)c2=O)c1NC(=O)CSc1ccc2ccccc2c1 [2-169]")
10
>>> reading("Cn1c(C(F)(F)F)cc(=O)n(-c2ccc(C(F)(F)F)cc2NC(=O)c2ccc3ccccc3c2)c1=O [2-149]")
0
>>> reading("COc1ccc(-n2c(=O)cc(C(F)(F)F)n(C)c2=O)c(NC(=O)c2ccc3ccccc3c2)c1 [2-143]")
10
>>> reading("CCCSCC(=O)Nc1c(OC)c(Cl)cc(F)c1-n1c(=O)cc(C(F)(F)F)n(C)c1=O [2-174]")
10
>>> reading("COc1c(Cl)cc(F)c(-n2c(=O)cc(C(F)(F)F)n(N)c2=O)c1NC(=O)COCc1ccccc1 [2-187]")
15
>>> reading("C=Cc1ccc(C(=O)N(C(=O)c2ccc(C=C)cc2)c2c(OC)c(Br)cc(F)c2-n2c(=O)cc(C(F)(F)F)n(C)c2=O)cc1 [2-183]")
0
>>> reading("COc1ccccc1C=CC(=O)Nc1c(OC)c(Cl)cc(F)c1-n1c(=O)cc(C(F)(F)F)n(C)c1=O [2-127]")
10

* * *

# Tested on: ivyleaf morningglory (Ipomoea hederacea, IPOHE)
# Experiment Description: Post-emerge test, greenhouse herbicide activity screening
# Type: in vivo
# Experimental Context: Rate 250 g ai/ha; rating scale 0-100 (0 no damage, 100 complete death); 14 days after application
Measured Parameter: Post-emerge Herbicidal Activity, phytotoxicity rating IPOHE

>>> reading("COCCOC(=O)C(Cl)Cc1c(OC)c(Cl)cc(F)c1-n1c(=O)cc(C(F)(F)F)n(C)c1=O (centres unmarked) [14-25]")
100
>>> reading("COc1c(Cl)cc(F)c(-n2c(=O)cc(C(F)(F)F)n(C)c2=O)c1CC(C)(Cl)C(=O)OCc1ccccc1 (centres unmarked) [14-41]")
50
>>> reading("COCCOC(=O)C(C)(Cl)Cc1c(OC)c(Cl)cc(F)c1-n1c(=O)cc(C(F)(F)F)n(C)c1=O (centres unmarked) [14-47]")
100
>>> reading("CCCCCOC(=O)C(C)(Cl)Cc1c(OC)c(Cl)cc(F)c1-n1c(=O)cc(C(F)(F)F)n(C)c1=O (centres unmarked) [14-37]")
100
>>> reading("COc1c(Cl)cc(F)c(-n2c(=O)cc(C(F)(F)F)n(C)c2=O)c1CC(Cl)C(=O)OCCC(C)C (single isomer, unassigned) [14-16]")
50
>>> reading("CCCCOC(=O)C(Cl)Cc1c(OC)c(Cl)cc(F)c1-n1c(=O)cc(C(F)(F)F)n(C)c1=O (single isomer, unassigned) [14-8]")
95
>>> reading("COc1c(Cl)cc(F)c(-n2c(=O)cc(C(F)(F)F)n(C)c2=O)c1CC(C)(Cl)C(=O)OCCSC (centres unmarked) [14-48]")
100
>>> reading("CCOC(=O)C(Br)Cc1c(OC)c(Cl)cc(F)c1-n1c(=O)cc(C(F)(F)F)n(C)c1=O (single isomer, unassigned) [14-33]")
20
>>> reading("COc1c(Cl)cc(F)c(-n2c(=O)cc(C(F)(F)F)n(C)c2=O)c1CC(Cl)C(=O)OC(C)(C)C (centres unmarked) [14-18]")
60
>>> reading("CCOC(=O)C(C)(Cl)Cc1c(OC)c(Cl)cc(F)c1-n1c(=O)cc(C(F)(F)F)n(C)c1=O (centres unmarked) [14-34]")
90
>>> reading("CCOC(=O)C(Cl)(CC(=O)OC)Cc1c(OC)c(Cl)cc(F)c1-n1c(=O)cc(C(F)(F)F)n(C)c1=O (centres unmarked) [14-50]")
0
>>> reading("C#CCOC(=O)C(Cl)Cc1c(OC)c(Cl)cc(F)c1-n1c(=O)cc(C(F)(F)F)n(C)c1=O (single isomer, unassigned) [14-20]")
70
>>> reading("COC(=O)C(Cl)Cc1c(OC)c(Cl)cc(F)c1-n1c(=O)cc(C(F)(F)F)n(C)c1=O (centres unmarked) [14-3]")
100
>>> reading("COc1c(Cl)cc(F)c(-n2c(=O)cc(C(F)(F)F)n(C)c2=O)c1CC(C)(Cl)C(=O)OCC(F)(F)C(F)F (centres unmarked) [14-45]")
100
>>> reading("O=C(Nc1cc(Cl)ccc1N1C(=O)c2ccccc2C1=O)c1ccc2ccccc2c1 [Compound 13-5]")
60
>>> reading("C#CCOC(=O)C(Cl)Cc1c(OC)c(Cl)cc(F)c1-n1c(=O)cc(C(F)(F)F)n(C)c1=O (single isomer, unassigned) [14-19]")
90
>>> reading("CCCOC(=O)C(C)(Cl)Cc1c(OC)c(Cl)cc(F)c1-n1c(=O)cc(C(F)(F)F)n(C)c1=O (centres unmarked) [14-35]")
100
